We begin with a simple list: items and their reported CC50 at 48 h.
test: Cytotoxicity against human A549 cells incubated for 48 hrs by celltiter-glo luminescent cell viability assay; format: toxicity, cell-based
assayReadout: CC50 at 48 h (µM)

>  <inputSmiles>
COc1ccccc1-c1nc2ncccn2c1NC1CCCCC1

>  <boundSign>
>

>  <testValue>
100

$$$$
>  <inputSmiles>
CCCCOc1ccc(-c2nc3ncccn3c2NCc2ccc(OC)cc2)cc1

>  <boundSign>
=

>  <testValue>
55

$$$$
>  <inputSmiles>
c1cnc2nc(-c3ccc(OC4CCCC4)cc3)c(NC3CCCCC3)n2c1

>  <boundSign>
=

>  <testValue>
39

$$$$
>  <inputSmiles>
CCCCOc1ccc(-c2nc3ncccn3c2Nc2ccccc2)c(C)c1

>  <boundSign>
=

>  <testValue>
23

$$$$
>  <inputSmiles>
CC(C)(C)CC(C)(C)Nc1nc2ncccn2c1-c1ccc(Br)cc1

>  <boundSign>
>

>  <testValue>
100

$$$$
>  <inputSmiles>
CCCCOc1ccc(-c2nc3ncccn3c2N2C(=O)c3cccc(O)c3C2=O)cc1

>  <boundSign>
>

>  <testValue>
100

$$$$
>  <inputSmiles>
CCCCOc1ccc(-c2nc3ncccn3c2NCc2nc[nH]c2C)cc1

>  <boundSign>
=

>  <testValue>
100

$$$$
>  <inputSmiles>
Oc1ccccc1-c1nc2ncccn2c1NC1CCCCC1

>  <boundSign>
>

>  <testValue>
100

$$$$
>  <inputSmiles>
O=C(O)CCCOc1ccc(-c2nc3ncccn3c2NC2CCCCC2)cc1

>  <boundSign>
>

>  <testValue>
100

$$$$
>  <inputSmiles>
FC(F)(F)c1cc(Br)ccc1-c1nc2ncccn2c1NC1CCCCC1

>  <boundSign>
=

>  <testValue>
25

$$$$
>  <inputSmiles>
Cc1cc(C)n2c(Nc3ccc4c(c3)OCCO4)c(-c3cccc(Br)c3)nc2n1

>  <boundSign>
>

>  <testValue>
100

$$$$

----------
Reported selectivity ratio values for the following compounds.
test: Selectivity index, ratio of CC50 for human A549 cells to IC50 for VSV pseudotyped virus infected in A549 cells; type: toxicity, cell-based; conditions: read-out: Ratio CC50/IC50
assayReadout: selectivity ratio

>  <inputSmiles>
Brc1ccc(-c2nc3ncccn3c2NC2CCCCC2)c(CN2CCOCC2)c1

>  <assayReadout>
selectivity ratio

>  <boundSign>
<

>  <testValue>
1

$$$$
>  <inputSmiles>
COc1ccccc1-c1nc2ncccn2c1NC1CCCCC1

>  <assayReadout>
selectivity ratio

>  <boundSign>
<

>  <testValue>
1

$$$$
>  <inputSmiles>
COCCCCOc1ccc(-c2nc3ncccn3c2NC2CCCCC2)cc1

>  <assayReadout>
selectivity ratio

>  <boundSign>
=

>  <testValue>
2

$$$$
>  <inputSmiles>
Clc1ccc(-c2nc3ncccn3c2NC2CCCCC2)cc1

>  <assayReadout>
selectivity ratio

>  <boundSign>
>

>  <testValue>
2

$$$$
>  <inputSmiles>
Cc1cc(Br)ccc1-c1nc2ncccn2c1Nc1ccccc1

>  <assayReadout>
selectivity ratio

>  <boundSign>
=

>  <testValue>
1

$$$$
>  <inputSmiles>
CCCCOc1ccc(-c2nc3ncccn3c2NC2CCCCC2)cc1

>  <assayReadout>
selectivity ratio

>  <boundSign>
=

>  <testValue>
2

$$$$
>  <inputSmiles>
FC(F)(F)c1cc(Br)ccc1-c1nc2ncccn2c1NC1CCCCC1

>  <assayReadout>
selectivity ratio

>  <boundSign>
=

>  <testValue>
1

$$$$

----------
assay: Selectivity index, ratio of CC50 for human A549 cells to IC50 for group 2 influenza A H7N1 pseudotyped virus infected in A549 cells; format: toxicity, cell-based; conditions: read-out: Ratio CC50/IC50
Examples of compounds with documented selectivity ratio follow.

>  <inputSmiles>
CCCCOc1ccc(-c2nc3ncccn3c2NCC2CCCCC2)cc1

>  <selectivity ratio>
110

$$$$
>  <inputSmiles>
CCOC(=O)CCCOc1ccc(-c2nc3ncccn3c2NC2CCCCC2)cc1

>  <selectivity ratio>
> 560

$$$$
>  <inputSmiles>
COCCOc1ccc(-c2nc3ncccn3c2Nc2ccccc2)cc1

>  <selectivity ratio>
> 19

$$$$
>  <inputSmiles>
CCCCOc1ccc(-c2nc3ncccn3c2NCc2ccco2)cc1

>  <selectivity ratio>
10

$$$$

----------
assay: Cytotoxicity against human A549 cells incubated for 48 hrs by celltiter-glo luminescent cell viability assay; assay type: toxicity, cell-based
assayReadout: CC50 at 48 h (µM)

>  <inputSmiles>
Fc1ccc(-c2nc3ncccn3c2NC2CCCCC2)cc1

>  <assayReadout>
CC50 at 48 h

>  <units>
µM

>  <boundSign>
=

>  <testValue>
100

$$$$
>  <inputSmiles>
COCCOc1ccc(-c2nc3ncccn3c2NC2CCCCC2)cc1

>  <assayReadout>
CC50 at 48 h

>  <units>
µM

>  <boundSign>
>

>  <testValue>
100

$$$$
>  <inputSmiles>
Brc1ccc(-c2nc3ncccn3c2NC2CCCCC2)cc1

>  <assayReadout>
CC50 at 48 h

>  <units>
µM

>  <boundSign>
>

>  <testValue>
100

$$$$
>  <inputSmiles>
CCCCOc1ccc(-c2nc3ncccn3c2NCc2c[nH]cn2)cc1

>  <assayReadout>
CC50 at 48 h

>  <units>
µM

>  <boundSign>
>

>  <testValue>
100

$$$$
>  <inputSmiles>
Cc1cc(C)n2c(NC3CCCCC3)c(-c3ccc(Br)cc3)nc2n1

>  <assayReadout>
CC50 at 48 h

>  <units>
µM

>  <boundSign>
=

>  <testValue>
32

$$$$
>  <inputSmiles>
Nc1c(-c2ccc(Br)cc2)nc2ncccn12

>  <assayReadout>
CC50 at 48 h

>  <units>
µM

>  <boundSign>
>

>  <testValue>
100

$$$$
>  <inputSmiles>
CCCCOc1ccc(-c2nc3ncccn3c2Nc2ccccc2)cc1

>  <assayReadout>
CC50 at 48 h

>  <units>
µM

>  <boundSign>
=

>  <testValue>
100

$$$$
>  <inputSmiles>
COc1ccc(-c2nc3ncccn3c2NC2CCCCC2)cc1

>  <assayReadout>
CC50 at 48 h

>  <units>
µM

>  <boundSign>
>

>  <testValue>
100

$$$$
>  <inputSmiles>
CCCCOc1ccc(-c2nc3ncccn3c2NCc2ccc3ccccc3c2)cc1

>  <assayReadout>
CC50 at 48 h

>  <units>
µM

>  <boundSign>
=

>  <testValue>
33

$$$$
>  <inputSmiles>
Nc1nc2ncccn2c1-c1ccc(Br)cc1

>  <assayReadout>
CC50 at 48 h

>  <units>
µM

>  <boundSign>
>

>  <testValue>
100

$$$$
>  <inputSmiles>
CCCCOc1ccc(-c2nc3ncccn3c2NCC2CCCCC2)cc1

>  <assayReadout>
CC50 at 48 h

>  <units>
µM

>  <boundSign>
=

>  <testValue>
35

$$$$
>  <inputSmiles>
Cc1cc(Br)ccc1-c1nc2ncccn2c1NC1CCCCC1

>  <assayReadout>
CC50 at 48 h

>  <units>
µM

>  <boundSign>
=

>  <testValue>
45

$$$$
>  <inputSmiles>
Cc1cc(Br)ccc1-c1nc2ncccn2c1Nc1ccccc1

>  <assayReadout>
CC50 at 48 h

>  <units>
µM

>  <boundSign>
=

>  <testValue>
40

$$$$
>  <inputSmiles>
CCCCOc1ccc(-c2nc3ncccn3c2NCCC)cc1

>  <assayReadout>
CC50 at 48 h

>  <units>
µM

>  <boundSign>
>

>  <testValue>
100

$$$$
>  <inputSmiles>
CCCCOc1ccc(-c2nc3ncccn3c2Nc2ccc(F)cc2)cc1

>  <assayReadout>
CC50 at 48 h

>  <units>
µM

>  <boundSign>
>

>  <testValue>
100

$$$$
>  <inputSmiles>
CCCCOc1ccc(-c2nc3ncccn3c2NC2CCCCC2)c(C)c1

>  <assayReadout>
CC50 at 48 h

>  <units>
µM

>  <boundSign>
=

>  <testValue>
32

$$$$
>  <inputSmiles>
Clc1ccc(-c2nc3ncccn3c2NC2CCCCC2)cc1

>  <assayReadout>
CC50 at 48 h

>  <units>
µM

>  <boundSign>
>

>  <testValue>
100

$$$$
>  <inputSmiles>
CCCCOc1ccc(-c2c(NC(C)(C)CC(C)(C)C)nc3ncccn23)cc1

>  <assayReadout>
CC50 at 48 h

>  <units>
µM

>  <boundSign>
=

>  <testValue>
49

$$$$
>  <inputSmiles>
CCCCOc1ccc(-c2nc3ncccn3c2NCC2CC2)cc1

>  <assayReadout>
CC50 at 48 h

>  <units>
µM

>  <boundSign>
>

>  <testValue>
100

$$$$
>  <inputSmiles>
CCCCOc1ccc(-c2nc3ncccn3c2NCc2ccccn2)cc1

>  <assayReadout>
CC50 at 48 h

>  <units>
µM

>  <boundSign>
>

>  <testValue>
100

$$$$
>  <inputSmiles>
COCCCCOc1ccc(-c2nc3ncccn3c2NC2CCCCC2)cc1

>  <assayReadout>
CC50 at 48 h

>  <units>
µM

>  <boundSign>
=

>  <testValue>
100

$$$$
>  <inputSmiles>
CCCCOc1ccc(-c2nc3ncccn3c2NC2CCCCCC2)cc1

>  <assayReadout>
CC50 at 48 h

>  <units>
µM

>  <boundSign>
=

>  <testValue>
26

$$$$
>  <inputSmiles>
CCOC(=O)CCCOc1ccc(-c2nc3ncccn3c2NC2CCCCC2)cc1

>  <assayReadout>
CC50 at 48 h

>  <units>
µM

>  <boundSign>
>

>  <testValue>
100

$$$$
>  <inputSmiles>
CCCCOc1ccc(-c2c(N)nc3ncccn23)cc1

>  <assayReadout>
CC50 at 48 h

>  <units>
µM

>  <boundSign>
>

>  <testValue>
100

$$$$
